meta.source: patent US12617790B2

target: KOR-1 (Mus musculus, UniProt P33534); construct: expressed in transfected cells; host or cells: CHO; test: Competition binding against 125I-IBNtxA in KOR-1/CHO membranes; settings: 125I-IBNtxA (0.1 nM), CHO membranes, cloned mouse receptor; read-out: Affinity (Ki nM) KOR-1
assay metric: Ki (nM)
Report only the number, with the unit nM understood.

Per the record, `CC[C@@H]1CN2CCc3c(n(C)c4cccc(OC)c34)[C@@H]2C[C@@H]1/C(=C\OC)C(=O)OC` has Ki of 143

Reported Ki ( CC[C@@H]1CN2CC[C@]3(Nc4cccc(-c5ccoc5)c4C3=O)C2C[C@@H]1/C(=C\OC)C(=O)OC (some centres unmarked) ) = 39

For record CC[C@@H]1CN2CC[C@@]3(C(=O)c4c(OC)cccc4N3Cc3ccccc3)C2C[C@@H]1/C(=C\OC)C(=O)OC (some centres unmarked) the listed Ki is 136

Per the records, this compound ( CC[C@@H]1CN2CCC3c4c(cccc4OC)NC3[C@@H]2C[C@@H]1/C(=C\OC)C(=O)OC (some centres unmarked) ) has Ki equal to 329

# Ki of CC[C@@H]1CN2CC[C@@]3(O)C(=Nc4ccc(-c5ccoc5)c(OC)c43)C2C[C@@H]1/C(=C\OC)C(=O)OC (some centres unmarked) = 36

Ki recorded for this compound, `CC[C@@H]1CN2CCc3c([nH]c4cccc(O)c34)[C@@H]2C[C@@H]1/C(=C\OC)C(=O)OC` , is 769

Looking up Oc1ccc2c3c1O[C@H]1c4[nH]c5c(c4C[C@@]4(O)[C@@H](C2)N(CC2CC2)CC[C@]314)C[C@@]1(O)[C@H]2Cc3ccc(O)c4c3[C@@]1(CCN2CC1CC1)[C@H]5O4 [norBNI, norbinaltorphimine, reference compound] , I see its Ki listed as 0.23

# compound CC[C@@H]1CN2CCC3(Nc4c(-c5ccoc5)ccc(OC)c4C3=O)C2C[C@@H]1/C(=C\OC)C(=O)OC (some centres unmarked) ; its Ki = 119

// Ki value for CC[C@@H]1CN2CC[C@]3(Nc4cccc(OC(C)=O)c4C3=O)C2C[C@@H]1/C(=C\OC)C(=O)OC (some centres unmarked) : 31

Entry under test: `CC[C@@H]1CN2CC[C@@]3(OC)C(=Nc4cccc(OC)c43)[C@@H]2C[C@@H]1/C(=C\OC)C(=O)OC` . Its Ki was 90

compound CC[C@@H]1CN2CCc3c([nH]c4ccc(-c5ccccc5)c(OC)c34)C2C[C@@H]1/C(=C\OC)C(=O)OC (some centres unmarked) , Ki observed: 204

Ki measured on CC[C@@H]1CN2CC[C@]3(Nc4cccc(C#N)c4C3=O)C2C[C@@H]1/C(=C\OC)C(=O)OC (some centres unmarked) = 47

For CC[C@@H]1CN2CC[C@]3(Nc4cccc(-c5ccccc5)c4C3=O)C2C[C@@H]1/C(=C\OC)C(=O)OC (some centres unmarked) the compound record lists Ki as 51

----------
target: MOR-1 (Mus musculus); construct: expressed in transfected cells; host or cells: CHO; test: Competition binding against 125I-IBNtxA in MOR-1/CHO membranes
pKi: −log10 of the molar value.
Given measured pKi, output yes if it is greater than or equal to 7 and no if not.

Would you say CC[C@@H]1CN2CC[C@@]3(C(=O)c4c(OC)cccc4N3C)C2C[C@@H]1/C(=C\OC)C(=O)OC (stereo partly shown) shows pKi at minimum 7?
no

Is it the case that CC[C@@H]1CN2CCc3c([nH]c4ccc(-c5ccoc5)c(OC)c34)C2C[C@@H]1/C(=C\OC)C(=O)OC (stereo partly shown) has pKi reaching or exceeding 7?
no

Has CC[C@@H]1CN2CCc3c([nH]c4c(-c5ccoc5)ccc(OC)c34)C2C[C@@H]1/C(=C\OC)C(=O)OC (stereo partly shown) a recorded pKi greater than or equal to 7?
no

Check if pKi >= 7 (inclusive). Item: CC[C@@H]1CN2CC[C@@]3(O)C(=Nc4cccc(OC)c43)C2C[C@@H]1/C(=C\OC)C(=O)OC (stereo partly shown)
yes

Could you verify whether the entry CC[C@@H]1CN2CCC3(Nc4c(-c5ccoc5)ccc(OC)c4C3=O)C2C[C@@H]1/C(=C\OC)C(=O)OC (stereo partly shown) shows pKi of no less than 7?
yes
